tested on: Klebsiella pneumoniae; settings: Concentration 20 uM; ASSAY_TEST Inhibition of Bacterial Growth; detection method Absorption (OD600); MEDIA CAMHB; plate type 384well; NBS; CORNING #3640; time 18 hr
Description: Antibacterial activity against Klebsiella pneumoniae MDR ATCC 70063 (CO-ADD:GN_003); MIC in CAMBH media using NBS plates, by OD(600)
Measured potencies and affinities stand elsewhere.
Mark MET only for Inhibition values smaller than 10%; exact matches and larger values are NOT MET.

compound | classLabel
COc1cccn2c(C(=O)N3CCCCC3)c(C(F)(F)F)nc12 | MET
CC(C)C(Oc1cccc2ccccc12)C(=O)O (stereo not given) | MET
Cc1cc2nc(NC(=O)C(C)(C)C)nc(Cl)c2n1Cc1ccc(Cl)cc1 | MET
COCC(C)NC(=O)CSc1ncnc2sc(-c3ccccc3)cc12 (stereo not given) | NOT MET
CC(C)n1ncc2c(C(=O)NCC(c3cccs3)N3CCOCC3)cc(-c3ccccc3)nc21 (stereo not given) | MET
CCOc1ccc2cc(-c3nn(C(C)(C)C)c(N)c3C(N)=O)cnc2c1.Cl | NOT MET
CS(=O)(=O)c1cccc(-c2cnc3[nH]cc(-c4ccc(CCC(=O)O)cc4)c3c2)c1 | MET
NC(=O)c1cc(-c2ccsc2)ccc1OCCOc1ccccc1 | NOT MET
c1ccc(Oc2ccc(-c3cncc(-c4ccc5[nH]ccc5c4)n3)cc2)cc1 | MET
COc1ccc(-c2cnc3ccc(NCc4ccc(S(N)(=O)=O)cc4)nn23)cn1 | NOT MET
